Source listed as patent US20210238260.

Target: Factor X, P00742
Sequence (P00742 whole entry, looked up): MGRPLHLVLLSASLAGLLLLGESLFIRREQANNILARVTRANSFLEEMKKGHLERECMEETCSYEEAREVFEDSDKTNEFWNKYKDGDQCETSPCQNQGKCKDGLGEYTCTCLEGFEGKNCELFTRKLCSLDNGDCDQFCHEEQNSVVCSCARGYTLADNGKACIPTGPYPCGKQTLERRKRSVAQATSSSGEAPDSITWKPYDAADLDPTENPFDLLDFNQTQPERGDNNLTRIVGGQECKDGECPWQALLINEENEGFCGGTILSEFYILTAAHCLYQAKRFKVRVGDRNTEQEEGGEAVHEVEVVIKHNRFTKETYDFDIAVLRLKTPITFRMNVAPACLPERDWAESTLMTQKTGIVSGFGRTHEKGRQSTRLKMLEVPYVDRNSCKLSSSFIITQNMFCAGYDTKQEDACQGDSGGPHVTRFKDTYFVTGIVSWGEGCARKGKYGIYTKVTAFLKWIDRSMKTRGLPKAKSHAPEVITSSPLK
metric: kcat/KM (M⁻¹ s⁻¹)
# output: bare number, implied unit M⁻¹ s⁻¹

## Task kcat/KM lookup needed for FIXa-R318Y/T343R/R403E/E410N (protein) chain 1: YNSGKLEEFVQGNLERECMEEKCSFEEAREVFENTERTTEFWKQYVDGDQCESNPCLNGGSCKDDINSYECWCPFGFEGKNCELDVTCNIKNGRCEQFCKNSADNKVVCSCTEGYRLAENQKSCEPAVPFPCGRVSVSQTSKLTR chain 2: VVGGEDAKPGQFPWQVVLNGKVDAFCGGSIVNEKWIVTAAHCVETGVKITVVAGEHNIEETEHTEQKRNVIRIIPHHNYNAAINKYNHDIALLELDEPLVLNSYVTPICIADKEYTNIFLKFGSGYVSGWGRVFHKGYSALVLQYLRVPLVDRATCLRSTKFRIYNNMFCAGFHEGGRDSCQGDSGGPHVTEVEGTSFLTGIISWGEECAMKGKYGIYTKVSEYVNWIKNKTKLT , thanks.
## Result 5.8e+07
